test system: NCI-H460; assay: NCI tumour cell line growth inhibition, 48 h
Active and inactive are the calls of the source. Cut-off read from the data, not from the text of the source: active = GI50 up to about 1.1 µM and inactive = higher.
attribute measured: GI50

| molecule | value measured |
| --- | --- |
| CC(C)OC(=O)/C=C/C(=O)O/C=C/[N+](=O)[O-] | 60.7 µM (inactive) |
| CCOC(=O)CNc1nnnn1C1OC(CO)C(O)C1O (stereo unspecified) | > 100 µM (inactive) |
| CCOC(=O)/C(=C/c1ccc(OC)cc1)N(CC)CC | > 100 µM (inactive) |
| Nc1nc(N)c2ncn(-c3ccc(Br)cc3)c2n1 | 34.9 µM (inactive) |
| Cc1cccc2sc(-c3ccc(O)cc3)nc12 | 18.1 µM (inactive) |

We next turn to a different molecule, shown below.
For this molecule ( CC(C)=CCN1c2ccccc2NC(=O)CC1C (stereo unspecified) ), measured GI50 is > 100 µM (inactive)

###

tested on: COLO 205; test: NCI tumour cell line growth inhibition, 48 h
Active and inactive are the calls of the source. Cut-off read from the data, not from the text of the source: active = GI50 up to about 1.1 µM and inactive = higher.
attribute measured: GI50

| compound | GI50 |
| --- | --- |
| CCOC(=O)/C(=C/c1ccc(OC)cc1)N(CC)CC | > 100 µM (inactive) |
| CC(C)(C)NNC(=O)CCn1[nH]c(=O)c(Cl)c(Cl)c1=O | > 100 µM (inactive) |
| COc1ccccc1NC(=O)CC(=O)NN | > 100 µM (inactive) |
| CSCCC(NC(=O)C(Cc1c[nH]c2ccccc12)NC(=O)CCNC(=O)OC(C)(C)C)C(=O)NC(CC(=O)O)C(=O)NC(Cc1ccccc1)C(N)=O (stereo not given) | > 50 µM (inactive) |
| O=C(CCc1ccccc1)ON1C(=S)C(c2ccccc2)(c2ccccc2)N=C1Sc1ccccc1 | 35.5 µM (inactive) |
| O=C(CCc1nnc2s/c(=C\c3ccc([N+](=O)[O-])cc3)c(=O)n12)Nc1ccc(Cl)c(Cl)c1 | 28.1 µM (inactive) |

Item: `C/C=N\n1c(C)c(C#N)c(C#N)c1N` | GI50: > 100 µM (inactive)

So, Cc1cn(C2CC(N=[N+]=[N-])C(CO)O2)c(=O)n(CCCCBr)c1=O (stereo not given) ? Its GI50 was > 100 µM (inactive)

// field: GI50; key: `CSC(SC)=C(C#N)C(=O)Nc1cccc(Cl)c1` ; value = > 100 µM (inactive)

Entry `CN(C(=O)C1=CCC2(CC1)OCCO2)c1ccccc1OS(=O)(=O)C(F)(F)F` — recorded GI50 = > 100 µM (inactive)

# GI50 of `O=c1oc2c([N+](=O)[O-])cc([N+](=O)[O-])cc2c2ccccc12` = > 100 µM (inactive)

###

system: MCF7; experiment: NCI tumour cell line growth inhibition, 48 h
Active and inactive are the calls of the source. Rule as the data show it: active = GI50 up to about 1.1 µM and inactive = higher.
attribute measured: GI50

Measured GI50, `C(#CC1(Nc2ccccc2)CCN(Cc2ccccc2)CC1)C1(Nc2ccccc2)CCN(Cc2ccccc2)CC1` : 31.5 µM (inactive)

Lab book: GI50 of `O=c1cc(CC(O)(C(F)(F)Cl)C(F)(F)Cl)[nH]n1-c1ccccc1` noted as > 100 µM (inactive)

For this compound ( CCC1=C(CC2NCCc3cc(OC)c(OC)cc32)CC2c3ccccc3CCN2C1 (centres undefined) ), measured GI50 is 18.7 µM (inactive)
